Data provenance is paper PMC7970697.

protocol-notes: Pharmacokinetics of probe substrates in rats with or without poziotinib pre-treatment
measurement-context: male, Sprague-Dawley, rat, plasma, po, CLz/F, Control group: oral probe cocktail only (10 mg/kg; tolbutamide 1 mg/kg), rats, n = 6
quantity-kind: CL/F (mL/min/kg)
All answers are understood in mL/min/kg, so give the number only.

Problem: Identify measured CL/F corresponding to CCCCNC(=O)NS(=O)(=O)c1ccc(C)cc1 [Tolbutamide]
Result: 0.333

* * *

protocol-notes: Pharmacokinetics of probe substrates in rats with or without poziotinib pre-treatment
measurement-context: male, Sprague-Dawley, rat, plasma, po, Cmax, Treated group: oral probe cocktail (10 mg/kg; tolbutamide 1 mg/kg) after 7 days oral poziotinib 5 mg/kg, rats, n = 6
quantity-kind: Cmax (ng/mL)
All answers are understood in ng/mL, so give the number only.

Problem: Identify measured Cmax corresponding to CCCCNC(=O)NS(=O)(=O)c1ccc(C)cc1 [Tolbutamide]
Result: 4920
